experiment: binders from COS7 lysate, DM2A8 probe, primary screen, torsin A project, cell lysate, small-molecule microarray, fluorescence 635/667 (AID 1065)
condition description: higher = more signal, COS7 lysate expressing mutant human TOR1A
observation type: composite z-score

compound=NC(=O)NCC#Cc1ccc2c(c1)[C@]1(C(=O)N2)[C@H](C(=O)Nc2nc3ccccc3s2)[C@H]2C(=O)O[C@H](c3ccccc3)[C@H](c3ccccc3)N2[C@@H]1c1ccccc1OCCO observation_type="composite z-score" numeric_result=0.407
compound=COC(=O)[C@@]1(Cc2ccc(OC)cc2)[C@H]2c3cc(C(=O)N(C)C)n(Cc4ccc(S(C)(=O)=O)cc4)c3C[C@H]2CN1C(=O)c1ccccc1 observation_type="composite z-score" numeric_result=0.325
compound=O=C1[C@@]23C=C(Br)[C@H](C[C@@H]2CCOC3)[C@@]12CO2 observation_type="composite z-score" numeric_result=0.113
compound=CCCCCCc1nc(-c2cc(C)c(OC)c(C)c2)cc2c1[Si](C(C)C)(C(C)C)OC2 observation_type="composite z-score" numeric_result=-0.375
compound=COC(=O)[C@H](Cc1ccccc1)N[C@@H](/C=C/C1CC1)[C@H](O)Cc1ccccc1 observation_type="composite z-score" numeric_result=-0.355
compound="CC(C)=CCCC(C)=CC(O)C1C=CC2C(=O)N(C)C(=O)C2N1Nc1ccccc1 (configuration not stated)" observation_type="composite z-score" numeric_result=0.708
compound=C[C@@]1([C@@H](NC(=O)c2ccc(-c3ccccc3)cc2)c2ccc(Cl)cc2)C[C@H]1C1CCCCC1 observation_type="composite z-score" numeric_result=0.903
compound=[N-]=[N+]=Nc1ccccc1[C@H]1OC(c2ccc(OCCCO)cc2)=N[C@@]1(CCS(=O)(=O)c1ccccc1)C(N)=O observation_type="composite z-score" numeric_result=0.449
compound="O=C1C2C=CC(C(O)Cc3ccccc3)N(n3cnnc3)C2C(=O)N1Cc1ccccc1 (configuration not stated)" observation_type="composite z-score" numeric_result=-0.0532
compound=C=CC(=C)[C@H]1Oc2ccccc2S(=O)(=O)N2CCC[C@@H]12 observation_type="composite z-score" numeric_result=0.196
compound=COc1cc2c(cc1OC)CN(C(=O)[C@@H]1[C@H]3C(=O)O[C@H](c4ccccc4)[C@H](c4ccccc4)N3[C@H](c3ccc(O)cc3)[C@@]13C(=O)Nc1ccccc13)CC2 observation_type="composite z-score" numeric_result=0.797
compound=CC(C)=CCN[C@H](CO)c1ccccc1 observation_type="composite z-score" numeric_result=-0.428
compound="CC1(C)[C@@H]2CC(C(O)C3C=CC4C(=O)N(c5ccccc5)C(=O)C4N3Nc3ccc([N+](=O)[O-])cc3)=C[C@H]1C2 (some centres not stated)" observation_type="composite z-score" numeric_result=0.325
compound=CN(C)CCCCCCNC(=O)[C@@H]1C[C@@H]2C(=O)N[C@@H](Cc3ccccc3)C(=O)N2[C@@H]1c1ccc(O)cc1 observation_type="composite z-score" numeric_result=1.57
compound=C=C(/C(=C/C[C@H](OC(C)=O)c1ccccc1OCCO)c1cnc2ccccc2c1)C(C)C observation_type="composite z-score" numeric_result=0.126
compound="O=C(NCCN1CCOCC1)C1N=C(c2ccc(OCCCO)cc2)N(c2ccccc2)O1 (configuration not stated)" observation_type="composite z-score" numeric_result=1.4
compound=COCC(=C=CC[C@@H](O)c1cccc(OCCO)c1)C[C@@H](O)c1ccccn1 observation_type="composite z-score" numeric_result=0.0883
